Tested on: ragweed (common ragweed, Ambrosia artemisiifolia)
Assay: Test A preemergence soil spray, visual injury rating 0-100
Assay type: in vivo
Conditions: 125 g ai/ha, 10 days, 0 = no effect, 100 = complete control
Give measured Ragweed plant response rating (0 to 100 scale) for each item. Keep answers brief.
Give bare numbers.

Past entries and their recorded results:
{"compound": "CC1(C(=O)NC2C=CC(C(=O)OCCS(C)(=O)=O)C2)CN(c2cc(Cl)cc(Cl)c2)C(=O)O1 (stereo not drawn)", "measurement": 30}
{"compound": "CC1(C(=O)NC2CC=C(C(=O)NS(=O)(=O)C3CC3)C2)CN(c2cc(Cl)cc(Cl)c2)C(=O)O1 (stereo not drawn)", "measurement": 0}
{"compound": "CC(C)OC(=O)C1CCC(NC(=O)C2(C)CN(c3cc(F)cc(F)c3)C(=O)O2)C1 (stereo not drawn)", "measurement": 0}
{"compound": "CC(C)OC(=O)C1CC(NC(=O)C2(C)CN(c3cc(F)cc(F)c3)C(=O)O2)CO1 (stereo not drawn)", "measurement": 0}
{"compound": "COC(=O)C1CCC(NC(=O)C2(C)CN(c3cc(F)cc(F)c3)C(=O)O2)C1 (stereo not drawn)", "measurement": 0}

Shift focus to the following entry.
May I ask what Ragweed plant response rating (0 to 100 scale) has been recorded for CCOC(=O)COC(=O)C1C=CC(NC(=O)C2(C)CN(c3cc(F)cc(F)c3)C(=O)O2)C1 (stereo not drawn) ?
20
